Can you tell me microsomal CLint at 3 µM for the items I'm about to list?
# Method description: Intrinsic clearance in human liver microsomes at 3 uM
# Format: ADME, microsome
# Assay setup: read-out: CLH
Quick reminder: number only, in µL/min/mg, skip the unit.

Consider the compound shown here: Cc1noc(C)c1-c1cc(O)cc(C(O)c2ccccc2)c1 (centres undefined) What is its recorded microsomal CLint at 3 µM? 34.8

Consider the compound shown here: Cc1noc(C)c1-c1cc(O)cc(C(O)c2cccnc2)c1 (centres undefined) What is its recorded microsomal CLint at 3 µM? 3.57

Consider the compound shown here: COc1ccc2c(c1)[C@]13CCCC[C@@H]1[C@H](C2)N(C)CC3 What is its recorded microsomal CLint at 3 µM? 25.4

Consider the compound shown here: Cc1noc(C)c1-c1cc(O)cc(CN2CCC(F)(F)CC2)c1 What is its recorded microsomal CLint at 3 µM? 51.4

* * *

# Study system: Bromodomain-containing protein 4 (Homo sapiens, UniProt O60885)
# Method description: Inhibition of recombinant His6-tagged human BRD4 bromodomain 1 expressed in Escherichia coli BL21(DE3)-R3-pRARE2 cells preincubated for 30 mins followed by H4KAc4 peptide substrate addition measured after 30 mins by AlphaScreen assay
# Assay setup: read-out: IC50
Readout kind: pIC50
Here pIC50 is given on a logarithmic scale as minus log10 of the concentration in mol/L.

Consider the molecule shown here: Cc1noc(C)c1-c1cc(O)cc(C(=O)N2CCNCC2)c1 What is its recorded pIC50? 6.14

Consider the molecule shown here: COc1cccc(C(O)c2cc(O)cc(-c3c(C)noc3C)c2)c1 (centres undefined) What is its recorded pIC50? 6.32

Consider the molecule shown here: Cc1ccc(C(O)c2cc(O)cc(-c3c(C)noc3C)c2)cc1 (centres undefined) What is its recorded pIC50? 6.53

Consider the molecule shown here: Cc1noc(C)c1-c1cc(O)cc(C(O)c2ccc(Cl)c(Cl)c2)c1 (centres undefined) What is its recorded pIC50? 6.02

Consider the molecule shown here: Cc1noc(C)c1-c1cc(O)cc(C(O)c2ccc(F)cc2)c1 (centres undefined) What is its recorded pIC50? 6.07

Consider the molecule shown here: Cc1noc(C)c1-c1cc(O)cc(Cc2ccccc2)c1 What is its recorded pIC50? 5.96

Consider the molecule shown here: Cc1noc(C)c1-c1cc(O)cc(CN2CCCCC2)c1 What is its recorded pIC50? 5.37

Consider the molecule shown here: Cc1noc(C)c1-c1cc(O)cc(C(O)C2CC2)c1 (centres undefined) What is its recorded pIC50? 6.42

Consider the molecule shown here: COc1ccccc1C(O)c1cc(O)cc(-c2c(C)noc2C)c1 (centres undefined) What is its recorded pIC50? 6.57

Consider the molecule shown here: Cc1noc(C)c1-c1cc(O)cc(C(O)c2cccc(F)c2)c1 (centres undefined) What is its recorded pIC50? 6.10

Consider the molecule shown here: Cc1noc(C)c1-c1cc(O)cc(C(O)c2ccccc2F)c1 (centres undefined) What is its recorded pIC50? 5.85

Consider the molecule shown here: Cc1noc(C)c1-c1cc(O)cc(CN2CCN(C)CC2)c1 What is its recorded pIC50? 5.91

Consider the molecule shown here: Cc1noc(C)c1-c1cc(O)cc(C(O)C2CCCCC2)c1 (centres undefined) What is its recorded pIC50? 6.78

Consider the molecule shown here: Cc1noc(C)c1-c1cc(O)cc(C(=O)N2CCOCC2)c1 What is its recorded pIC50? 5.42

Consider the molecule shown here: Cc1noc(C)c1-c1cc(O)cc(CN2CCC(F)(F)CC2)c1 What is its recorded pIC50? 6.63

Consider the molecule shown here: Cc1noc(C)c1-c1cc(O)cc(C(O)c2ccccn2)c1 (centres undefined) What is its recorded pIC50? 5.33

Consider the molecule shown here: Cc1noc(C)c1-c1cc(O)cc(C(O)c2ccc(Cl)cn2)c1 (centres undefined) What is its recorded pIC50? 6.31

Consider the molecule shown here: Cc1noc(C)c1-c1cc(O)cc(C(O)c2cccnc2)c1 (centres undefined) What is its recorded pIC50? 6.78

Consider the molecule shown here: Cc1noc(C)c1-c1cc(O)cc(C(O)c2ccc(Cl)cc2)c1 (centres undefined) What is its recorded pIC50? 6.20
